Target: UniProtKB Q16769
Assay: Fluorometric (fluorescent) assay of hQC inhibition, IC50
Type: biochemical
Settings: hQC inhibition; read-out: IC50
Value Type: IC50
Provide the measurement as a number trailed by its unit.

Request: Please look up its IC50: COc1ccc(C(Nc2ccc3[nH]cnc3c2)c2nnnn2-c2ccccc2OCc2ccccc2)cc1 (stereo not drawn)
Result: 2.2 µM

Request: Please do the same for Cc1cc(C)cc(C(Nc2ccc3[nH]cnc3c2)c2nnnn2CC(=O)N2CCc3ccccc3C2)c1 (stereo not drawn) as well.
Result: 4.9 µM

Request: Then what about the compound CC(Cc1ccc2c(c1)OCO2)C(Nc1ccc2[nH]cnc2c1)c1nnnn1CC(=O)OC(C)(C)C (stereo not drawn) ?
Result: 4.9 µM

Request: Do the same for CCOC(=O)C1CCCCC1n1nnnc1C(Nc1ccc2[nH]cnc2c1)c1c[nH]c2cc(C)ccc12 (stereo not drawn) please
Result: 8.5 µM

Request: Try the compound Brc1cc(Br)cc(C(Nc2ccc3[nH]cnc3c2)c2nnnn2CCc2cccs2)c1 (stereo not drawn)
Result: 2.2 µM

Request: Query c1nc2cc(NC(c3ccc(N4CCCC4)cc3)c3nnnn3CC3CCCO3)ccc2[nH]1 (stereo not drawn) next
Result: 6.7 µM

Request: Another: CCOC(=O)C1CCCCC1n1nnnc1C(Nc1ccc2[nH]cnc2c1)c1cc(C)cc(C)c1 (stereo not drawn)
Result: 5.8 µM

Request: Now give it for COc1ccc(C(Nc2ccc3[nH]cnc3c2)c2nnnn2Cc2ccc(Cl)cc2)cc1F (stereo not drawn) too.
Result: 3.1 µM

Request: Also check c1cncc(Cn2nnnc2C(Nc2ccc3[nH]cnc3c2)c2ccc3nsnc3c2)c1 (stereo not drawn)
Result: 6.7 µM

* * *

Target: hQC (Homo sapiens, UniProt Q16769)
Sequence (Q16769 29-361): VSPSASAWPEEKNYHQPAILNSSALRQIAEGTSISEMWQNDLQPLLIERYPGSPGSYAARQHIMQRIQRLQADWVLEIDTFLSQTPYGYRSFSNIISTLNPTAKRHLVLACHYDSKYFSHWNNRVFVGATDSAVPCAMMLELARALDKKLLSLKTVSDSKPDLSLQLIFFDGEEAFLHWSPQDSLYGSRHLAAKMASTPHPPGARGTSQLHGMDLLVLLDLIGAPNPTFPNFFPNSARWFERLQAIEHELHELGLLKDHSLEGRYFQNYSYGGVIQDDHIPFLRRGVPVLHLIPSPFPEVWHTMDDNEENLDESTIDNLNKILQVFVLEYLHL
Assay: Fluorometric (fluorescent) assay of hQC inhibition, IC50
Format: biochemical
Conditions: read-out: IC50
Value Type: IC50 (µM)
# number only, unit µM dropped from output

Request: Would you mind telling me what IC50 value was observed for c1ccc2oc(C(Nc3ccc4[nH]cnc4c3)c3nnnn3CC3CCCO3)cc2c1 (stereo not drawn) [compound 101] ?
Result: 4.9

Request: Here is the next molecule: c1ccc2oc(C(NCCCn3ccnc3)c3nnnn3C[C@@H]3CCCO3)cc2c1 (stereo partly drawn) [compound 15]
Result: 6.7

Request: Subsequent entry: COc1ccc(C(Nc2ccc3[nH]cnc3c2)c2nnnn2CC2CCCO2)cc1 (stereo not drawn) [compound 88]
Result: 4.9
